# Experiment notes: soluble on expression in E. coli; label from the status in PepcDB or PDB records
Readout kind: soluble on expression in E. coli

Below: 6 sequences and their reported soluble on expression in E. coli.
Entry sequence | Readout kind | Reported
MNDNTHTLPPRHLSVAPMLDWTDRHYRYLARQITRNTWLYSEMVNAGAIVYGDKDRFLMFNEGEQPVALQLGGSDPSDLAKAAKAAEAYGYNEVNLNCGCPSPRVQKGSFGACLMNEVGLVADCLNAMQDAVKIPVTVKHRIGVDRQTEYQTVADFVGTLRDKTACKTFIVHARNAWLDGLSPKENRDVPPLKYDYVYRLKQEFPGLEIIINGGITTNEAIAGHLQHVDGVMVGREAYHNPMVMREWDRLFYGDTRSPIEYADLVQRLYTYSQAQIQAGRGTILRHIVRHSLGLMHGLKGARTWRRMLSDATLLKDNDGSLILEAWKEVERANMRE | soluble on expression in E. coli | not soluble
MEESIMSIKVDMSLDCKGLACPMPIVKTKKAIEGLAPGQVIEVKATDKGSTIDIKSWASKVGHQYIGTKHEGDVLVHYVRKANEHEVNEVVKYPHTITNAELQSILSHGEESIVLDVREAAEFAFGHIPSAISVPLGELDSAVLDETKRIYVICRTGNRSDVACHMLKEKGYANVKNVIPGMLEWKGNVEK | soluble on expression in E. coli | not soluble
MGHHHHHHSHMLRGMARMGGQRRLKALAAPRFWPILRKEYKWAVKPRPGPHPAEKSLPLLLIVRNVLGYAQTAREARKLISEGHFRVDGVVRKDYKFPVGFMDVIEVVDTGEKFRMLPYPVKFFKLHPIPEEEGDLKPVRIENKTTVKGGHVQLNLHDGRNILVRVKDPRNPVEDVYRTMDTLLITVPGQEIKGHIKFGEGAIAIIVGGRNVGRVGVVKSVQKGWGRKRTLVTLEDASGNLFQTSLDYVFVIGLDRPVISLPEGAWK | soluble on expression in E. coli | soluble
ANAFLEELRPGSLERECKEEQCSFEEAREIFKDAERTKLFWISYSDGDQCASSPCQNGGSCKDQLQSYICFCLPAFEGRNCETHKDDQLICVNENGGCEQYCSDHTGTKRSCRCHEGYSLLADGVSCTPTVEYPCGKIPILEKRNASKPQGR | soluble on expression in E. coli | soluble
MTLSFDDAAATVKTLKTSPSNDELLKLYALFKQGTVGDNTTDKPGMFDLKGKAKWSAWDEKKGLAKDDAQKAYVALVEELIAKYGA | soluble on expression in E. coli | soluble
MNLHTKTWVQRLPVPIDVAWDFFSQPGNLARITPPEMMLKAEGGNAGTAIYEGMKLNFVLYPFMMIPVRWTTEIMKVSKPDFFEDRQLSGPYEQWYHRHLFRDIEGGTEMTDIVEYALPFDLFGEVVEALIVGPRLDEVFEYRRCRVAEILGEMASETRLEHHHHHH | soluble on expression in E. coli | soluble

Read the next record carefully.
Query: # lookup: soluble on expression in E. coli of MSLGKGVRDPGSDGSLRRKELAMIKVEDMMTRHPHTLLRTHTLNDAKHLMEALDIRHVPIVDANKKLLGIVSQRDLLAAQESSLQRSAQGDSLAFETPLFEVMHTDVTSVAPQAGLKESAIYMQKHKIGCLPVVAKDVLVGIITDSDFVTIAINLLELQEESEPDELDEEQEGGSHHHHHH
Reply: soluble
